Target: T1, P2-AA-1HAA-T
T1 chain: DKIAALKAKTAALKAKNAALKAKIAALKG
Experiment: two-hybrid library CCmax;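 also: natural log of median RNA to DNA barcode read ratio; higher means stronger binding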
Details: mean of both orientations
measuredProperty: interaction score

1. DEIAALEAEKAALEAENAALEAEIAALEG [P1-AA-1HAA-K]    2.06
2. DEIAALEAEIAALEAENAALEAEIAALEG [P1-AA-1HAA-I]    1.91
3. DEIAALEAEDAALEAENAALEAEIAALEG [P1-AA-1HAA-D]    1.59
4. DEIAALEAETAALEAENAALEAEIAALEG [P1-AA-1HAA-T]    1.69
5. DEIAALEAEAAALEAENAALEAEIAALEG [P1-AA-1HAA-A]    1.64
6. DEIAALEAEHAALEAENAALEAEIAALEG [P1-AA-1HAA-H]    2.13

These entries and their values trace back to paper PMC10397247.
